target: cAMP-dependent protein kinase catalytic subunit alpha (Homo sapiens) (UniProt P17612); details: at 0.1 µM;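 also: reported value is the mean percent inhibition of PKA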
Below, each of the compounds is paired with its reported inhibition value.
Quick reminder: number only, in %, skip the unit.

>>> assay_value("c1ccc(Oc2ccc(Nc3ncc(-c4ccccc4)o3)cc2)cc1")
1.26

O=C(Nc1n[nH]c2nc(-c3ccco3)ccc12)C1CC1 yielded inhibition of 1.78

c1ccc(-c2n[nH]cc2-c2ccnc(-c3ccc(OCCN4CCOCC4)cc3)c2)nc1 yielded inhibition of 7.85

---

system: Mast/stem cell growth factor receptor Kit (Homo sapiens), P10721 [V560G]; details: at 1 µM
Sequence (P10721 whole entry V560G): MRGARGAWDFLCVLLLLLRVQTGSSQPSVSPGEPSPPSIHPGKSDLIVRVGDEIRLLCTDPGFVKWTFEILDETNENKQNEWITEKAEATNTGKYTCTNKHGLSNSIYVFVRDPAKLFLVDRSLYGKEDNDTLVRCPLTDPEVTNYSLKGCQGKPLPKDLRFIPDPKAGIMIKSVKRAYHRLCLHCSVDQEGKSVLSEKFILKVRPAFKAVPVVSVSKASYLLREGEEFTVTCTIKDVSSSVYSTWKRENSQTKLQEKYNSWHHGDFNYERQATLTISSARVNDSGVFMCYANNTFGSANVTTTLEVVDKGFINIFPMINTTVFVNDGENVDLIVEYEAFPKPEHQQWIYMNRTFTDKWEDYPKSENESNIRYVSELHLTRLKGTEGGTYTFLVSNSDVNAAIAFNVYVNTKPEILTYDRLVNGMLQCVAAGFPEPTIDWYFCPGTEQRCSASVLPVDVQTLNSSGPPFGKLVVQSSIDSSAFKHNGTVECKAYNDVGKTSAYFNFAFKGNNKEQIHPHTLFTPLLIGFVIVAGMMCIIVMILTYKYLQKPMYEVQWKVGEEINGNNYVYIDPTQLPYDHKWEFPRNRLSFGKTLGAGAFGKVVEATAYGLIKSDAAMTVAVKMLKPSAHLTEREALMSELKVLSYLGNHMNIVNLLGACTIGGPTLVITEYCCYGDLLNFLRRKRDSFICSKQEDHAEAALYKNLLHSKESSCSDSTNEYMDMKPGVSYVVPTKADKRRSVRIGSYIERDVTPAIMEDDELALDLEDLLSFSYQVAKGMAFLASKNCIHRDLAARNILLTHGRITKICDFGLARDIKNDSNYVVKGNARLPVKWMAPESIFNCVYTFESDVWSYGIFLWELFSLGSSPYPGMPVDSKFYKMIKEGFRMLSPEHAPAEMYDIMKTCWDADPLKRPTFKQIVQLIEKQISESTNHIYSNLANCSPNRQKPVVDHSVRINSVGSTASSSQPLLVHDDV
Observable: inhibition

The examples below pair each entry with its known result.
>>> assay_value("CCc1cccc(CC)c1/C=C/c1cncc(C(=O)NC)c1")
"4.63%"
>>> assay_value("COc1cc(Nc2ncc3c(C)nc(-c4cccc(C(F)(F)F)c4)n3n2)cc(OC)c1OC")
"7.67%"

Now consider a different compound.
NS(=O)(=O)c1ccc(N/N=C2\C(=O)Nc3ccc(C(=O)NCCCn4ccnc4)cc32)cc1 yielded inhibition of 1.2%

---

Below, each of the molecules is paired with its reported inhibition value.
biological target: Non-receptor tyrosine-protein kinase TYK2 (Homo sapiens) (UniProt P29597); conditions: at 1 µM;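 also: values are mean percent inhibition of TYK2 kinase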
Sequence (P29597 whole entry): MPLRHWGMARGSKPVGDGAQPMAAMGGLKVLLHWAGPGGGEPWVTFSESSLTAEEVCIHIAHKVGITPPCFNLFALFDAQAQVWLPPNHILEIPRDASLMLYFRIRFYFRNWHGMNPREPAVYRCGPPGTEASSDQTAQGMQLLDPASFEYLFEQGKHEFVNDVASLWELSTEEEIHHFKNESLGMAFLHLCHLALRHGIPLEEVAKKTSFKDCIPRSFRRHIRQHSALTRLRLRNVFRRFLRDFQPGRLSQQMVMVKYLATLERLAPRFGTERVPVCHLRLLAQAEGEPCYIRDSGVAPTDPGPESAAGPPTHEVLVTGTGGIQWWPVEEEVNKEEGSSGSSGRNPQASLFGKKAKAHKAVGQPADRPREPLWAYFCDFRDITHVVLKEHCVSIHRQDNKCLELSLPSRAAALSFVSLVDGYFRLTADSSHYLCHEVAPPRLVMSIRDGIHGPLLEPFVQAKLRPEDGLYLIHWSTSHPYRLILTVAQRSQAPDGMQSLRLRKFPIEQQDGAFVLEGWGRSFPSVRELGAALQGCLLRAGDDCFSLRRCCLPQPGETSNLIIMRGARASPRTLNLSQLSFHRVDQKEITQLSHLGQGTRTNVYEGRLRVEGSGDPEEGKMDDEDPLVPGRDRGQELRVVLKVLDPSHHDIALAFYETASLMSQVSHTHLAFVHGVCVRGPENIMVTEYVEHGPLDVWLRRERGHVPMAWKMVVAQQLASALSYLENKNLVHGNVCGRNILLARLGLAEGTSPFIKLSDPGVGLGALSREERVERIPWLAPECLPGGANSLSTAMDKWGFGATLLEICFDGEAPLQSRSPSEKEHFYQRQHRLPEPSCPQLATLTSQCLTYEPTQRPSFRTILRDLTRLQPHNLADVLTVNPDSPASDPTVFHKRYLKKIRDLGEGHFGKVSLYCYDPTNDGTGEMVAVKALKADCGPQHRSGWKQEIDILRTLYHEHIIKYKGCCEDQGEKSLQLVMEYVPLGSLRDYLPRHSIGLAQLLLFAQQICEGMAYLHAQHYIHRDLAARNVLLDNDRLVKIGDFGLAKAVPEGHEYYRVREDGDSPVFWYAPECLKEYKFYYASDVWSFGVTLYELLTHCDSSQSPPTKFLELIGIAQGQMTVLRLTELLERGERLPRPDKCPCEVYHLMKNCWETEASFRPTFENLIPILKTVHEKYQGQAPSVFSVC
Answer format: value, then unit.

Entry Nc1nccc(-c2c(-c3ccc(F)cc3)ncn2C2CCC(O)CC2)n1 (stereo unspecified) under Non-receptor tyrosine-protein kinase TYK2 (Homo sapiens) (UniProt P29597) had inhibition of 0.09%

Entry O=C(NCC1CC1)c1ccc(-c2cccc(C(=O)NC3CC3)c2)cc1 under Non-receptor tyrosine-protein kinase TYK2 (Homo sapiens) (UniProt P29597) had inhibition of -5.6%

Entry CCc1cccc(CC)c1/C=C/c1cncc(C(=O)NC)c1 under Non-receptor tyrosine-protein kinase TYK2 (Homo sapiens) (UniProt P29597) had inhibition of -3.91%

Entry Clc1ccc(CNc2nccc(-c3cnn4ncccc34)n2)cc1 under Non-receptor tyrosine-protein kinase TYK2 (Homo sapiens) (UniProt P29597) had inhibition of 1.83%

Entry FC(F)(F)c1cccc(Nc2nccc(-c3cnn4nc(-c5ccccc5)ccc34)n2)c1 under Non-receptor tyrosine-protein kinase TYK2 (Homo sapiens) (UniProt P29597) had inhibition of -5.81%

Entry COc1cc2ncn(-c3cc(OCc4ccccc4C(F)(F)F)c(C(C)=O)s3)c2cc1OC under Non-receptor tyrosine-protein kinase TYK2 (Homo sapiens) (UniProt P29597) had inhibition of -0.07%

---

Target: Ephrin type-B receptor 2 (Homo sapiens) (UniProt P29323)
Sequence (whole entry): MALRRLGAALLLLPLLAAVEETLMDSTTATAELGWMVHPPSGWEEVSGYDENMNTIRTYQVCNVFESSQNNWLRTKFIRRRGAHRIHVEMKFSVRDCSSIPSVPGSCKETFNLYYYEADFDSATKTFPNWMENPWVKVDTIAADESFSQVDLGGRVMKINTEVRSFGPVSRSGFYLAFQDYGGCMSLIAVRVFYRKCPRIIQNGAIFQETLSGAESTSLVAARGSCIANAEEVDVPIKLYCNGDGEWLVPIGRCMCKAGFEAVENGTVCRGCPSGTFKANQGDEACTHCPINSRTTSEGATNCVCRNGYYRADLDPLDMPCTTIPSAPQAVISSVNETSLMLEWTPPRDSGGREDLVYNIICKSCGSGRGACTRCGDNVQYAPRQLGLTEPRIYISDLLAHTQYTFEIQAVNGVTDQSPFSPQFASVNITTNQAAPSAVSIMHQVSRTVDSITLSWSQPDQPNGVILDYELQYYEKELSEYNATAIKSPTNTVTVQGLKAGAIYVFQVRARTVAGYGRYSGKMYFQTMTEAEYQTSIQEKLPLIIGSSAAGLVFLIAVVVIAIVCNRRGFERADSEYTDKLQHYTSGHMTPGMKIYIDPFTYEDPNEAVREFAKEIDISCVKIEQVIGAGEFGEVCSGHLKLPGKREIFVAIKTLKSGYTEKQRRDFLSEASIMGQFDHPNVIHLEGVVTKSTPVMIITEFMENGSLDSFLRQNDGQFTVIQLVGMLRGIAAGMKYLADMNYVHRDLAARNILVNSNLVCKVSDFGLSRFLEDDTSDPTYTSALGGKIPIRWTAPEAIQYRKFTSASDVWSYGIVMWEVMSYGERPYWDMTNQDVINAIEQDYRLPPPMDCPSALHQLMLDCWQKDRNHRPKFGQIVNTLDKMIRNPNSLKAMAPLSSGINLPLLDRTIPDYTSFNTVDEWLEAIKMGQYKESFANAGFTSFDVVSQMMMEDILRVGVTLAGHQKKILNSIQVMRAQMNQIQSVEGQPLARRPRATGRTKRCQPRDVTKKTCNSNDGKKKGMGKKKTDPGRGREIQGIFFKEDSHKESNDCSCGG
Settings: at 1 µM
Description: GSK_PKIS: EPHB2 mean inhibition at 1 uM [Nanosyn]
Observable: inhibition (%)
Quick reminder: number only, in %, skip the unit.

>>> assay_value("C/C(Nc1ccc(S(N)(=O)=O)cc1)=C1/C(=O)Nc2ccccc21")
-0.51
>>> assay_value("O=C(NCC1CC1)c1ccc(-c2cccc(C(=O)NC3CC3)c2)cc1")
11.8
>>> assay_value("Cc1ccc(C(=O)NC2CCC2)cc1-c1ccc(C(=O)NCC2CC2)cc1")
2.05
>>> assay_value("Fc1ccc(-c2ncn(C3CCNCC3)c2-c2ccnc(Oc3ccc4c(c3)OCO4)n2)cc1")
16.5
>>> assay_value("COc1ccc2cc(-c3c(-c4ccncc4)nc(-c4ccc(S(C)(=O)=O)cc4C)n3C)ccc2c1")
12.5

Now consider a different compound.
NC(=O)c1cc(-c2ccncc2)cc(-c2ccccc2)c1N yielded inhibition of 57.7
